- assayComment: gradient 5% acetonitrile 3 min, to 50% in 2 min, to 85% in 15 min, held 3 min, 100 µL/min
- assayContext: column: Zorbax Extend-C18 2.1 x 50 mm; eluents: water / acetonitrile, 0.1% formic acid
measurementLabel: RP-LC retention time (s)

Known results for compounds:
{"smilesStr": "CCCc1cc(N2CCN(C(=O)c3cccn3C)CC2)nc2nnc(CC)n12", "RP-LC retention time / s": 636}
{"smilesStr": "CNc1nc(Nc2cccc(OC)c2)nc2ccccc12", "RP-LC retention time / s": 650}
{"smilesStr": "CSc1nnc(-c2nn(C)c3c2CN(C(=O)c2ccc(C)c(C)c2)CC3)n1C", "RP-LC retention time / s": 770}
{"smilesStr": "CCn1cnc2ccc(-c3noc(-c4cccc(Cl)c4)n3)cc21", "RP-LC retention time / s": 861}
{"smilesStr": "Cc1oc(C2CCN(C(=O)Nc3ccccc3Cl)CC2)nc1C(=O)N(C)C", "RP-LC retention time / s": 691}

1. Cn1cc(C2=CCN(S(=O)(=O)c3cccc4cccnc34)CC2)c2cccnc21
2. Cc1ccc(S(=O)(=O)Nc2cncc(C(=O)O)c2)cc1
## Input // which entry reports the smaller RP-LC retention time, 1 or 2 ? Your choice should be expressed through its label.
## Output 2
(2: 614 s, 1: 889 s)

====

- assayComment: gradient 5% acetonitrile 3 min, to 50% in 2 min, to 85% in 15 min, held 3 min, 100 µL/min
- assayContext: column: Zorbax Extend-C18 2.1 x 50 mm; eluents: water / acetonitrile, 0.1% formic acid
measurementLabel: RP-LC retention time (s)

Known results for molecules:
{"molecule": "Cc1nc2cc(N3CCCC(C(=O)NCc4cccc(F)c4)C3)cnc2nc1C (centres undefined)", "observedResult": 735}
{"molecule": "CCN1CCCn2nc(C3CCN(C(=O)c4cccc(C(F)(F)F)c4)CC3)cc2C1=O", "observedResult": 785}
{"molecule": "COc1cc(OC)c(NS(=O)(=O)c2cc(-c3cc(C(F)(F)F)on3)sc2C)cc1Cl", "observedResult": 1150}
{"molecule": "CCc1ccc(S(=O)(=O)c2ccccc2)cc1S(=O)(=O)NCCCN(C)C", "observedResult": 687}

P. CCc1ccc(-c2nc(-c3ccc4oc(C)nc4c3)no2)cc1
Q. O=C(Nc1c(C(=O)N2CCN(c3ccccn3)CC2)oc2ccccc12)c1ccc([N+](=O)[O-])cc1
## Input // which entry reports the smaller RP-LC retention time, P or Q ? Your choice should be expressed through its label.
## Output Q
(Q: 757 s, P: 1280 s)

P. COC(=O)c1cc(OC)c(OC)cc1NC(=O)C1Oc2ccccc2OC1C (centres undefined)
Q. COc1ccc(-c2nnc(-c3ccccc3)o2)cc1S(N)(=O)=O
## Input Between the two listed entries P and Q , which has its RP-LC retention time at the higher number? Your choice should be expressed through its label.
## Output P

====

- assayComment: gradient 5% acetonitrile 3 min, to 50% in 2 min, to 85% in 15 min, held 3 min, 100 µL/min
- assayContext: column: Zorbax Extend-C18 2.1 x 50 mm; eluents: water / acetonitrile, 0.1% formic acid
measurementLabel: RP-LC retention time (s)

A. COc1ccc(-n2ccn3cc(-c4ccc5c(c4)OCO5)nc3c2=O)cc1OC
B. Cc1cc(C)cc(NS(=O)(=O)c2c(C)sc(C)c2-c2n[nH]c(C)c2C)c1
## Input Between the two listed entries A and B , which has its RP-LC retention time at the higher number? Your choice should be expressed through its label.
## Output B
(B: 1110 s, A: 733 s)
